Assay: yeast display, Sf9 membrane polyspecificity reagent, FACS + sequencing; frameworks hold sequencing errors
Metric: polyreactivity (PSR sort gate)

Below are worked cases with known answers.
[
  {
    "Query Sequence": "QVQLEESGGGLVQAGGSLRLSCAASGSTFEVYAMGWYRQAPGKERELVAVINVSDGSTYYADSVKGRFTISRDYAKNTVYLQMNSMKPEDTAVYYCADYLYNRPYQLTGYYDGYGYWGQGTQVTVSS",
    "polyreactivity (PSR sort gate)": "low polyreactivity"
  },
  {
    "Query Sequence": "QVQLVESGGGLVQAGGSLRVSCAASGFSFKYYAMGWYRQAPGKERELVAAITKRGGSTYYADSVKGRFTISRDNAKNTVYLQLNSLIPEDTAVYYCAADGRAYERYDYRSDYWGQGSQVTVSS",
    "polyreactivity (PSR sort gate)": "high polyreactivity"
  },
  {
    "Query Sequence": "QVQLVESGGGLVQAGGSLRLSCAASGRIFGNYAMGWYRQAPGKERELVAAISGGGSTYYADSVKGRFTISRDNAKNTVYLQMNSLKPEDTAVYYCAARFLWSVFGRKGGFWGQGTQVTVSS",
    "polyreactivity (PSR sort gate)": "low polyreactivity"
  },
  {
    "Query Sequence": "QVQLVDSGGGLVQAGGRLRLSCAASGFTFPSNAMGWYRKAPGKERQLVASINQRGGSTYYADSVKGRFTISRDNAKNTVYLQMNSLKPEDTAVYYCAAGPTSRRWYDYWGQGTQVTVSS",
    "polyreactivity (PSR sort gate)": "high polyreactivity"
  },
  {
    "Query Sequence": "QVQLVESGGGLVQAGGSLRLSCAASGRTFRTYAMGWYRQAPGKERELVAVITVNSASTYYADSVKGRFTISRDYAKNTVYLQMKSLKPEDTAVYYCADYFIYGYWGQGTQVTVSS",
    "polyreactivity (PSR sort gate)": "low polyreactivity"
  }
]

Fill in: polyreactivity (PSR sort gate) of QVQLVESGGGLVQAGGSLRLSCAASGSIFDYYAMGWYRQAPGKERELVAAISESSDSTYYADSVKGRFTISRDNAKNTVYLQMNSLKPEDTAVYYCAAYRGTLLTAYDYWGQGTQVTVSS is ___
low polyreactivity

Tell me the measured polyreactivity (PSR sort gate) of QLQLVESGGGLGQAGGSLRLSCAASGSIFDHYAMGWYRQAPGKERELVASMSKCGGSTYYADSVKGRFTISRDNAKNTVYLQMNSLKPEDTAVYYCASKQYYRGHNYWGQGTQVTVSS , please.
high polyreactivity

What polyreactivity (PSR sort gate) value was documented for this sequence, QVQLVESGGGLVQAGGSLRLSCAASGYIFRGYVMGWYRQAPGKERELVAAITSRGDSTYYADSVKGRFTISRDNAKNTVYLQMNSLKPEDTAVYYCNAVHYYVEYDYWGQGTEVTVSS ?
high polyreactivity

Please give the measured polyreactivity (PSR sort gate) for this sequence: QVQLVESGGGLVQAGGSHRLSCAASGLTFFTYAMGWYRQAPGKERELVATISSRGGRTYYADSVKGRFTISRDNAKNTVYLQMNSLKPEDTAVYYCAARGVWKSKHNYWGQGTQVTVSS
high polyreactivity

Given the entry QDQLVESWGGLVQAGCSLRLTCAASGSTFWWYAMGWNRQAPGKQREFDAPINWSGSRTYYADSVKGRFTISRDNAKNTVYLQINSLNPEDTAVYYCAAVGRWGVTGSHHDAYDYWGQGTQVTVSS , report its measured polyreactivity (PSR sort gate).
high polyreactivity

What value of measured polyreactivity (PSR sort gate) is listed for QVQLVESGGGLVQAGGSLRLSCAASGSTFSPYAMGWYRQAPGKEREIVAAISWGDGSTYYADSVKGRFTISRDNAKNTVYLQINSLKPEDTAVYYCNVKPSARGAPLYDYWGQGTQVTVSS ?
high polyreactivity
